- experimentalProtocol: NCI Yeast Anticancer Drug Screen. Data for the mlh1 rad18 strain (AID 175)
- experimentalContext: S. cerevisiae mlh1 rad18 strain growth inhibition; at 50.0 µM
About 79,000 compounds went through this panel and 15% of them were active in at least one assay; those are over-represented in the sample as a whole. Active and inactive are the calls of the source. No stated cut-off is given here; in the data, active means growth inhibition above about 70%; inactive means the rest.
Allowed answers: label 1 for active, label 0 for inactive

Sample answers from the record:
- O=C1OC(=O)c2ccccc21: label 0
- O=C([O-])C[n+]1ccccc1/C=C/c1ccccc1: label 0
- O=C(O)c1cc(-c2c(Cl)cccc2Cl)nc2cc3ccccc3cc12: label 0
- C=CCCC(C)(C(=O)OCC)C(=O)OCC: label 0

Answer briefly: the call reported for CCCCCCCCCOc1ccc2ccccc2c1 in this assay.
label 0

Answer briefly: the call reported for OCc1ccncc1 in this assay.
label 0

Answer briefly: the call reported for Cc1cc(Cl)ccc1Nc1nc2c(s1)C(=O)c1ccccc1C2=O in this assay.
label 1

Answer briefly: the call reported for Clc1ccccc1SSc1ccccc1Cl in this assay.
label 0

Answer briefly: the call reported for CCCCOCN1COCN(COCCCC)C1=O in this assay.
label 0

Answer briefly: the call reported for c1ccc(CCN2CCN=C2Cc2ccccc2)cc1 in this assay.
label 0

Answer briefly: the call reported for COc1ccc(/C=C2\C=Cc3ccccc32)cc1OC in this assay.
label 0

Answer briefly: the call reported for Nc1ncnc2c1c1c(=O)[nH]c(=O)[nH]c1n2C1OC(CO)C(O)C1O (centres undefined) in this assay.
label 0

Answer briefly: the call reported for O=C(O)c1ccccc1C(=O)OCC1CCCc2ccccc21 (centres undefined) in this assay.
label 0

Answer briefly: the call reported for COc1ccc2c(c1)OC(C)(C)C(c1ccccc1)=C2c1ccc(OCCN2CCCC2)cc1 in this assay.
label 1

----------
- experimentalProtocol: NCI Yeast Anticancer Drug Screen. Data for the cln2 rad14 strain (AID 165);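 further: 0% = growth equal to vehicle treated cultures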
- experimentalContext: S. cerevisiae cln2 rad14 strain, at 50.0 µM, stronger effect = higher value
The panel holds about 79,000 compounds, 15% with a hit somewhere; the sample as a whole holds those more often. Where a SMILES comes first, the peptide text is derived from it. The star is where a group is joined. Cbz = O=C(OCc1ccccc1)*
Kindly state growth inhibition for each of the entries shown.
Give bare numbers, in %.

Recorded results for 4 compounds are shown here.
* CC1=CC2C3C(=O)OC(=O)C3C1C(Cc1ccccc1)N2C (stereo unspecified) | 12.9
* O=C1C2=Cc3ccccc3OC2(O)Oc2ccccc21 (stereo unspecified) | 3.35
* Fc1cccc(C(Nc2nncs2)Nc2nncs2)c1 | -11.6
* COc1ccccc1C1OC2=C(Nc3ccc(Cl)cc3N2)C1=O (stereo unspecified) | -7

Each compound below has a reported value. Please supply its growth inhibition.
1. C(=C\P(c1ccccc1)c1ccccc1)/P(/C=C/P(c1ccccc1)c1ccccc1)c1ccccc1
2. O=C1NC(c2ccc(Cl)cc2)(c2ccc(Cl)cc2)C(=O)N1Cl
3. O=C(NCc1ccccc1)C1C2CCC(C2)C1C(=O)NCc1ccccc1 (stereo unspecified)
4. CCC1SC(C)C(=O)NC1=O (stereo unspecified)
5. CN1CCN(CCCNN)CC1

1: 8.15; 2: 16.9; 3: -2.35; 4: -14.3; 5: 3.55

Each compound below has a reported value. Please supply its growth inhibition.
1. CCCCCCCC(C)(O)C#CC(C)(O)CCCCCCC (stereo unspecified)
2. CN(C)CCCNC(=O)CCNC(=O)c1cc(NC(=O)c2cc(NC(=O)c3cc(NC(=O)c4nccn4C)cn3C)cn2C)cn1C
3. O=C(O)c1ncn2c(=O)n(CCCl)nnc12
4. COc1ccc(C2(O)c3ccccc3C(=O)c3ccc(OC)cc32)cc1 (stereo unspecified)
5. CC(=O)Nc1ccc(/C=C/c2csnn2)cc1
6. O=C(Nc1nc2ccccc2[nH]1)C(F)(F)F
7. Cc1cc(Cl)ccc1OCCCC(=O)NC(Cc1ccccc1)C(=O)O (stereo unspecified)
8. COc1cc2c(c3c1c(=O)c1ccc(F)cc1n3C)C=CC(C)(C)O2

1: -20.6; 2: 12.4; 3: -27.8; 4: 14.8; 5: 8.7; 6: 5.55; 7: 27.5; 8: -23.9

Each compound below has a reported value. Please supply its growth inhibition.
1. C#CCN(C)Cc1cc(OC)c(OC)c(OC)c1
2. C[N+](C)(C)/N=C1\CC2CCC1C2 (stereo unspecified)
3. CC(C)C(NC(=O)C(Cc1ccc(O)cc1)NC(=O)OCc1ccccc1)C(=O)O (stereo not drawn) (Cbz-Tyr-Val-OH; configuration not given here)
4. COC(=O)C1=C2C3(O)CC4CC5C3CCC(C)N5C24C2CCC(O)C(OC)C2C1OC(=O)c1ccccc1 (stereo unspecified)

[-10.9, 4.75, -29.6, -1.85]

Each compound below has a reported value. Please supply its growth inhibition.
1. CC(=O)OC1/C=C(/C)CCC2OC2(C)CC2OC(=O)C3(CC3)C12 (stereo unspecified)
2. Cc1ccsc1/C=N/Nc1cnccn1

10.7
6.15

----------
- experimentalProtocol: NCI Yeast Anticancer Drug Screen. Data for the cln2 rad14 strain (AID 165);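 further: 0% = growth equal to vehicle treated cultures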
- experimentalContext: S. cerevisiae cln2 rad14 strain, at 50.0 µM, stronger effect = higher value
The panel holds about 79,000 compounds, 15% with a hit somewhere; the sample as a whole holds those more often.
measureName: growth inhibition (%)
Numbers only, in %.

Recorded results for 5 compounds are shown here.
- FC(F)(F)C1(C(F)(F)F)C2CCC3(CC(F)(F)C(F)(F)S3)C1C2 (stereo not given): 22.9
- O=C(Cc1cccc2c(=O)cc(-c3ccccc3)oc12)OCCN1CCOCC1: 7.4
- [O-][N+](=Nc1ccccc1Cl)c1ccccc1Cl: 4.15
- C/C(=C/c1ccccc1)C(=O)O: -20.1
- CC(=O)CCc1ccc(Cl)cc1: 3.1

Each compound below has a reported value. Please supply its growth inhibition.
1. O=[N+]([O-])c1ccc(C2SCc3nc4ccccc4n32)cc1 (stereo not given)
2. c1ccc(COC2COC(c3ccccc3)OC2)cc1 (stereo not given)

15.2
16.9

Each compound below has a reported value. Please supply its growth inhibition.
1. O=C(/C=C/c1ccccc1)NC(=S)Nc1ccc(F)c([N+](=O)[O-])c1
2. CC(C)=NNc1snnc1C(N)=O
3. Cc1nn(-c2nc(-c3ccccc3)cs2)c(C)c1C
4. CCN(CC)CCCC(C)Nc1c2ccccc2nc2cc(Cl)cc(Cl)c12 (stereo not given)
5. CCSC1(SCC)C2(CCCCC2)C(=O)C12CCCCC2
6. O=C(CCCSCCCC(=O)NN=C1CCSCC1)NN=C1CCSCC1
7. CCO/C(C)=N/NC(=O)c1n[nH]c2ccccc12

1: 12.7; 2: -2; 3: 2.9; 4: 10.9; 5: -12.1; 6: 21.2; 7: 0.05

Each compound below has a reported value. Please supply its growth inhibition.
1. O=C(NCc1ccco1)Nc1ccc(Cl)cc1
2. Cc1cccc(C)c1NC(=S)NC=C(C(N)=O)C(N)=O
3. O=c1[nH]c(=S)[nH]c2ncn(C3OC(CO)C(O)C3O)c12 (stereo not given)
4. Cc1ccc(/C(O)=C/C(=O)C(=O)NN=C(c2ccccc2)c2ccccc2)cc1
5. S=C(NC1CCCCC1)N1CCC(CCCC2CCN(C(=S)NC3CCCCC3)CC2)CC1

1. -51.4
2. 3.1
3. -9.6
4. 4.85
5. -1.05

Each compound below has a reported value. Please supply its growth inhibition.
1. O=C(/C=C/c1cccc([N+](=O)[O-])c1)Nc1cccnc1
2. O=C(O)CS(=O)(=O)CC(=O)O
3. Nc1nc(SCC(=O)O)nc(N)c1N=Nc1ccc(S(=O)(=O)NC(=O)c2ccccc2)cc1

1: -11.8; 2: -6.65; 3: -0.3

----------
- experimentalProtocol: NCI Yeast Anticancer Drug Screen. Data for the cln2 rad14 strain (AID 165);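 further: 0% = growth equal to vehicle treated cultures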
- experimentalContext: S. cerevisiae cln2 rad14 strain, at 50.0 µM, stronger effect = higher value
This is part of a sample that, as a whole, favours compounds with a hit. Of some 79,000 tested, about 15% had one in any assay. Calls of active or inactive are those of the source. Cut-off read from the data, not from the text of the source: active = growth inhibition above about 70%; inactive = the rest.
Kindly state growth inhibition for each of the entries shown.

- O=C(O)COc1ccc(F)c(F)c1F: -9.6% (inactive)
- CC1c2c(ccc3c2CCC=C3)CCC1CC1=CCCc2ccc3ccccc3c21 (stereo not drawn): -13.3% (inactive)

Now for a further molecule.
Entry under review: CNCc1cccs1 . Reported growth inhibition?
-40.3% (inactive)

----------
- experimentalProtocol: NCI Yeast Anticancer Drug Screen. Data for the mlh1 rad18 strain (AID 175)
- experimentalContext: S. cerevisiae mlh1 rad18 strain growth inhibition; at 50.0 µM; stronger effect = higher value
- Description: Growth inhibition of yeast strains with defined genetic alterations is measured as a screen for potential anti-cancer activity. Selected strains with alterations in DNA damage repair or cell cycle control were exposed to compounds and growth inhibition was measured relative to vehicle treated controls. The strain used in this assay is mlh1 rad18
This is part of a sample that, as a whole, favours compounds with a hit. Of some 79,000 tested, about 15% had one in any assay.
measureName: growth inhibition (%)
Give bare numbers, in %.

Each compound below has a reported value. Please supply its growth inhibition.
1. CC(C)NC(=O)C1C2CCC(C2)C1C(=O)NC(C)C (centres undefined)
2. O=C(O)c1c[nH]c2c(Cl)cccc2c1=O
3. ClCCCCSC1CCCCC1
4. O=Cc1ccc(/C=C/C(=O)O)cc1

1. -7.25
2. 14.4
3. -25.1
4. 1.1
